ASSAY: Human HepG2 cell viability assay in 384 well format
Type: toxicity, cell-based
Parameters: dose 125 nL, time 70.5 hour; concentration not given beside the values
RECORDED CONDITIONS: HepG2 cells, read-out: Inhibition
TEST READOUT: cytotoxicity at 70.5 h (%)
Answers are plain numbers, in %.

For orientation, consider the following solved cases.
>>> print(df.to_string())
                                  compound  unit_abbrev  data_value
0  CC(=O)Nc1nc(C)c(S(=O)(=O)NCCc2cccnc2)s1            %        1.62
1  CC(C)n1ccnc1CN1CCCN(C(=O)CN(C)C2CC2)CC1            %       -5.01

Continue with the next compound.
Task item: Respond only with cytotoxicity at 70.5 h recorded for Cn1ccc(CN2CCC3(CC2)CC(Nc2ccccn2)CO3)n1 (stereo not drawn)
Reply: -2.31

----------
Provide the recorded cytotoxicity at 70.5 h for the entries that follow.
ASSAY: Human HepG2 cell viability assay in 384 well format
Assay type: toxicity, cell-based
Set-up: dose 125 nL, time 70.5 hour; concentration not given beside the values
RECORDED CONDITIONS: HepG2 cells, read-out: Inhibition
Numbers only, in %.

>>> df
                                   compound            test_readout  data_value
0                CN1Cc2[nH]nc(COCC3CC3)c2C1  cytotoxicity at 70.5 h       -11.3
1  Cc1ccn(CC(=O)N2CC[C@@H](c3ccc4ccccc4c3)[C@H](O)C2)n1  cytotoxicity at 70.5 h       -10.1

// for each compound below, give its cytotoxicity at 70.5 h
1. Cc1ccc(N2CCO[C@H]3CN(Cc4nccs4)C[C@H]32)nn1
2. CCNC(=O)[C@@H]1C[C@H](N)CN1C(=O)c1cccc(CCC(C)(C)O)c1
3. COCCN(CCOC)c1ncccc1I
4. COCCN1CCC2(CCN(CC3CC3)CC2)C1=O
5. Cc1noc(C)c1CN1CCC(c2ccnn2CCO)CC1

Reply:
1. -6.14
2. -5.42
3. -4.47
4. -2.3
5. -5.98

// for each compound below, give its cytotoxicity at 70.5 h
1. CCC(C(=O)NCc1cc(N2CCOCC2)ncn1)n1cccn1 (centres undefined)
2. C=C(C)COc1ccccc1C(=O)NCc1nc(C)cc(=O)[nH]1
3. CCN(CC)C1(Cc2cc(-c3ccccn3)on2)COC1

Reply:
1: -1.38; 2: -11.2; 3: -4.45

----------
Provide the recorded cytotoxicity at 70.5 h for the entries that follow.
ASSAY: Human HepG2 cell viability assay in 384 well format
Type: toxicity, cell-based
Parameters: dose 125 nL, time 70.5 hour; concentration not given beside the values
RECORDED CONDITIONS: HepG2 cells, read-out: Inhibition
One number for each entry, in %.

For orientation, consider the following solved cases.
>>> print(df.to_string())
                                   molecule  unit_abbrev  data_value
0  Cc1ccsc1C(=O)Nc1ccc(N2CCC(O)CC2)c(C#N)c1            %      -0.649
1  CC(Nc1ncnc2c1NC(=O)CN2)c1ccc2c(c1)OCO2 (centres undefined)            %       -18.5
2  O=C1O[C@@H]2CN(Cc3ccccc3)C[C@@H]2N1CCCN1CCOCC1            %        -7.7
3     O=C(Cn1ccc2ccccc21)Nc1cc(N2CCCC2)ncn1            %        3.21
4  Cn1nnc2c1CCN(Cc1ccncc1)C2COCc1ccccc1 (centres undefined)            %       -6.13

// for each molecule below, give its cytotoxicity at 70.5 h
1. CC(C(=O)N1CCN(C(=O)c2ccc(F)cc2F)CC1)n1ccnc1 (centres undefined)
2. CN(C)C(=O)COCc1ncn2c1CN(c1ncc(F)cn1)CCC2
3. Cc1noc(C)c1CNc1ccc2nc(C3CC3)sc2c1
4. Cn1cc(CN2CCC(F)(F)C3(CCN(c4ncccn4)C3)C2)cn1 (centres undefined)
5. O=C(Cc1cnn(-c2ccccc2)n1)NC1CCOCC1
6. O=C(Nc1cc(C(F)(F)F)c[nH]c1=O)C1CCCCN1 (centres undefined)
7. c1cncc(CN2CC[C@H]3O[C@@H](COCC4CC4)CC[C@H]32)c1

Reply:
1. -4.77
2. 9.71
3. -1.96
4. -12.2
5. -0.727
6. -8.9
7. -5.15

// for each molecule below, give its cytotoxicity at 70.5 h
1. Cc1cc(CN2CCO[C@H]3[C@H](OCc4csc(C)n4)CC[C@@H]32)no1
2. NCCC(=O)N1CCC2(CC1)CN(C(=O)Cc1ccc(Cl)cc1)CCO2

Reply:
2.95
-14.3

----------
ASSAY: Human HepG2 cell viability assay in 384 well format
Assay type: toxicity, cell-based
Parameters: dose 125 nL, time 70.5 hour; concentration not given beside the values
RECORDED CONDITIONS: HepG2 cells, read-out: Inhibition
Provide the recorded cytotoxicity at 70.5 h for the entries that follow.
One number for each entry, in %.

For orientation, consider the following solved cases.
                                   molecule  unit_abbrev  data_value
0  COc1cc(-c2cc(NC3CCCC3)nc3[nH]ccc23)nc(N)n1            %       -11.3
1  CN(CC(=O)N1CCCC1c1ccccn1)Cc1ccccc1 (stereo not drawn)            %       -6.16

Continue with the next molecule.
Task item: Respond only with cytotoxicity at 70.5 h recorded for CCOC(=O)NC(=O)CSC(C)c1ccccc1F (stereo not drawn)
Reply: -14.4

----------
ASSAY: Human HepG2 cell viability assay in 384 well format
Format: toxicity, cell-based
Parameters: dose 125 nL, time 70.5 hour; concentration not given beside the values
RECORDED CONDITIONS: HepG2 cells, read-out: Inhibition
TEST READOUT: cytotoxicity at 70.5 h (%)
Numbers only, in %.

>>> df
                                   molecule  data_value
0  CCC(C)(NCc1ncc(C(C)C)o1)c1nccs1 (centres undefined)        1.37

// for each molecule below, give its cytotoxicity at 70.5 h
1. Clc1cncc(NCc2cccc(COC3CCOCC3)c2)n1
2. CC(C)S(=O)(=O)NCC(Cc1cccc(F)c1)N1CCNC1=O (centres undefined)
3. Cc1cc(CC(=O)N(CC2CN(C)CCO2)c2nccs2)no1 (centres undefined)

Reply:
-6.08
-15.5
-10.3

----------
ASSAY: Human HepG2 cell viability assay in 384 well format
Type: toxicity, cell-based
Set-up: dose 125 nL, time 70.5 hour; concentration not given beside the values
RECORDED CONDITIONS: HepG2 cells, read-out: Inhibition
Provide the recorded cytotoxicity at 70.5 h for the entries that follow.
Give bare numbers, in %.

For orientation, consider the following solved cases.
                                   molecule  data_value
0  CC(C)(C)OC(=O)N1CCC[C@H](NCc2cc[nH]c2)C1         -11
1  Cc1cc(C)n(CC(C)NCCn2nc(C)c(Cl)c2C)n1 (stereo not given)        3.47
2      CCOc1cc(/C=C/c2ncc(C(=O)NC)s2)ccc1OC       -13.2

// for each molecule below, give its cytotoxicity at 70.5 h
1. CC(C)CCc1nc(CN2CCOC(Cn3cncn3)C2)cs1 (stereo not given)
2. CC(C)c1cc(C(=O)N2CCC3(CCc4ccccc4C(=O)N3)C2)on1 (stereo not given)
3. OCC1(Cc2ccc(Cl)cc2)CCN(Cc2ccccc2O)CC1
4. COCCN1C(=O)C[C@@H]2[C@H]1CCN2C(=O)COc1ccccc1

Reply:
[-2.95, -2.23, -4.64, -20.9]

----------
ASSAY: Human HepG2 cell viability assay in 384 well format
Assay type: toxicity, cell-based
Set-up: dose 125 nL, time 70.5 hour; concentration not given beside the values
RECORDED CONDITIONS: HepG2 cells, read-out: Inhibition
Provide the recorded cytotoxicity at 70.5 h for the entries that follow.
Numbers only, in %.

For orientation, consider the following solved cases.
>>> print(df.to_string())
                                   compound            test_readout  unit_abbrev  data_value
0  COC[C@]1(O)CCN(C2CCN(c3ccc(Cl)cc3)CC2)CC1(C)C  cytotoxicity at 70.5 h            %        22.5
1  COc1ccc(CNCC2CCN(CC(C)O)CC2)c2ccccc12 (stereo not given)  cytotoxicity at 70.5 h            %        29.8
2  CCOCCN1CCN(Cc2cccc(C(=O)N(C)C)c2)CC1C (stereo not given)  cytotoxicity at 70.5 h            %       -9.62
3    CC(C)(C)c1ncc2c(n1)CN(C(=O)c1ccncc1)C2  cytotoxicity at 70.5 h            %       -9.79
4  Cn1c(=O)ccn(CC(=O)NCC2Cc3ccccc3O2)c1=O (stereo not given)  cytotoxicity at 70.5 h            %      -0.993
5  CC(=O)N(Cc1noc(C2CC2)n1)C1CCN(Cc2ccccn2)C1 (stereo not given)  cytotoxicity at 70.5 h            %       -9.44

// for each compound below, give its cytotoxicity at 70.5 h
1. CCc1cc(NCCN2CCNC2=O)n2nccc2n1
2. CC(C)c1cnc(CN(C)C2CCN(CCCc3cnn(C)c3)C2)o1 (stereo not given)
3. CC(C)N1C[C@@H]2OCC(=O)N(Cc3ccccc3)[C@@H]2C1
4. CCN(CC)C(=O)c1ccc(CNc2ncc(C#N)cc2Cl)cc1
5. CN1CC2(CCN(Cc3ccoc3)CC2)COc2ccccc2S1(=O)=O

Reply:
1: 3.72; 2: 20.9; 3: -10.2; 4: -7.7; 5: -12.1
